Ref: PubChem BioAssay (Tox21)

Experiment: qHTS assay for small molecules that induce genotoxicity in human embryonic kidney cells expressing luciferase-tagged ATAD5 - cell viability (AID 651634); note: nearly all actives have a fitted effect of over 25% in size
Conditions: HEK293T ATAD5-luc cells viability, CellTiter-Fluor, 15.5 h; series mostly up to 83.3 µM
Records with an inconclusive call do not appear. Calls of active or inactive are those of the source. Calls come from the whole dose curve.
measure: outcome

Consider the reported outcome for these molecules:
> print(dat)
                               molecule    result
1                                 CCNCC  inactive
2    Cn1c(-c2ccccc2)cc(-c2ccccc2)[n+]1C  inactive
3                        COc1ccc(CO)cc1  inactive
4                     CCOC(=O)c1ccccc1N  inactive
5                           ClCC(Cl)CCl  inactive
6             CC(C)Nc1ccc(Nc2ccccc2)cc1  inactive
7  CCOP(=S)(OCC)SCn1c(=O)oc2cc(Cl)ccc21  inactive
8  O=[N+]([O-])/N=C1\NCCN1Cc1ccc(Cl)nc1  inactive

Q: Return reported outcome; argument: COP(=S)(OC)Oc1ccc(Sc2ccc(OP(=S)(OC)OC)cc2)cc1
Ans: inactive

Q: Next: CN(C)c1nc(=O)n(C2CCCCC2)c(=O)n1C
Ans: inactive

Q: Next: CCC(=O)Nc1ccc(Cl)c(Cl)c1
Ans: inactive
